Data provenance: paper PMC8072719

system: BALB/3T3 clone A31; test: Growth inhibition assay (SRB assay), normal fibroblasts BALB/3T3 clone A31; format: cell-based, mouse; conditions: Mus musculus, BALB/3T3 clone A31, 72 h, supplement, mean ± SD, read-out: IC50 BALB3T3 (raw data)
measurement.name: IC50 (µg/mL)

{"record.smiles": "C[C@@H](c1ccccc1)N1C[C@@H](n2cc(-c3cccc(N)c3)nn2)[C@@H]2CC[C@H]1C2", "measurement.name": "IC50", "number": 28.8}
{"record.smiles": "C[C@@H](c1ccccc1)N1C[C@H](n2cc(CO)nn2)[C@@H]2CC[C@H]1C2", "measurement.name": "IC50", "number": 56.1}
